System under test: IL-17A(FLAG-Tagged): IL-17RA(His-Tagged) (Homo sapiens, UniProt Q16552, K93Q)
Sequence (Q16552 with tags, fused parts or gaps K93Q): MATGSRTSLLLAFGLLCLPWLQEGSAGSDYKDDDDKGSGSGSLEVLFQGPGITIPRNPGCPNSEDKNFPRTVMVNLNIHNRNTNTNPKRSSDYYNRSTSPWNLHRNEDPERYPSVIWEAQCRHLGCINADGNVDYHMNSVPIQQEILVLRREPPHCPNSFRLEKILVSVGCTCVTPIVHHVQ
Procedure text: IL-17A(FLAG-Tagged): IL-17RA(His-Tagged) Binding Disruption Eu-HTRF Assay, Protocol 1
Condition parameters: Protocol 1, FLAG tagged IL-17A 2.5 nM; simple average if tested more than once
pIC50: −log10 of the molar value.
Item-by-item account of pIC50

(Q) Data request, read-out pIC50, for CC(C)n1nccc1C(=O)NC(c1nc2nc([C@@H](C3CC3)N3CC(F)(F)CNC3=O)ccc2[nH]1)[C@@H](C)O[C@H](C)C(F)(F)F (single isomer, unassigned)
(A) < 7.00

(Q) Follow-up entry: CC(C)(OC[C@H](NC(=O)c1nonc1C1CC1)c1nc2cc(CN3CC(C(F)(F)F)NC3=O)ccc2[nH]1)C(F)(F)F (stereo in doubt)
(A) 7.00 to 7.30

(Q) Follow-up entry: C[C@H](O[C@H](C)C(NC(=O)c1ccnn1C)c1nc2cc([C@@H](C3CC3)N3C[C@@H](C(F)(F)F)NC3=O)ccc2[nH]1)C(F)(F)F (single isomer, unassigned)
(A) > 7.30

(Q) Follow-up entry: [2H]C1([2H])[C@@H](C(F)(F)F)NC(=O)N1[C@@H](c1ccc2[nH]c([C@@H](NC(=O)c3nonc3C)[C@@H](C)O[C@@H](C)C(F)(F)F)nc2c1)C1CC1 (relative stereo) [Example 12]
(A) > 7.30

(Q) Follow-up entry: CC(C)n1nccc1C(=O)N[C@H](c1nc2c(F)cc([C@@H](C3CC3)N3C[C@@H](C(F)(F)F)NC3=O)cc2[nH]1)[C@@H](C)O[C@H](C)C(F)(F)F
(A) 7.00 to 7.30

(Q) Follow-up entry: C[C@H](c1ccc2[nH]c([C@H](COC(C)(C)C(F)(F)F)NC(=O)c3nonc3C3CC3)nc2c1)N1CC(F)(F)CNC1=O (relative stereo)
(A) > 7.30

(Q) Follow-up entry: CC(C)(OC[C@H](NC(=O)c1nonc1C1CC1)c1nc2cc([C@@H](C3CC3)N3C[C@@H](C(F)(F)F)NC3=O)ccc2[nH]1)C(F)(F)F
(A) > 7.30

(Q) Follow-up entry: CC(C)n1ncnc1C(=O)N[C@@H](COC(C)(C)C(F)(F)F)c1nc2cc([C@@H](C3CC3)N3C[C@@H](C(F)(F)F)NC3=O)ccc2[nH]1
(A) > 7.30

(Q) Follow-up entry: CC(C)n1nccc1C(=O)NC(c1nc2cc([C@@H](C3CC3)N3C[C@@H](C(F)(F)F)NC3=O)ccc2[nH]1)[C@@H](C)O[C@@H](C)C(F)(F)F (single isomer, unassigned)
(A) > 7.30

(Q) Follow-up entry: Cc1nonc1C(=O)N[C@@H](COC(C)(C)C(F)(F)F)c1nc2cc([C@@H](C)N3CC(F)(F)CNC3=O)ccc2[nH]1 (relative stereo)
(A) > 7.30

(Q) Follow-up entry: CC(C)n1nccc1C(=O)N[C@@H](COC(C)(C)C(F)(F)F)c1nc2nc(CN3C[C@@H](C(F)(F)F)NC3=O)ccc2[nH]1 (relative stereo)
(A) < 7.00

----------
System: IL-17A-induced G-CSF production in human normal keratinocyte (NHK)
Procedure text: NHK Assay: IL-17A-induced G-CSF production in human normal keratinocyte
Format: cell-based
Condition parameters: Homo sapiens, Keratinocyte, 24 h, IL-17A 5 ng/mL, simple average if tested more than once
pIC50: −log10 of the molar value.
Measured metric: pIC50

Answered cases to consult:
COC[C@H](c1ccc2[nH]c([C@@H](NC(=O)c3nonc3C)[C@@H](C)O[C@@H](C)C(F)(F)F)nc2c1)N1CC(F)(F)CNC1=O = > 7.30
CC(C)n1ncc(F)c1C(=O)N[C@@H](COC(C)(C)C(F)(F)F)c1nc2cc(CN3CC(C(F)(F)F)NC3=O)ccc2[nH]1 (single isomer, unassigned) = 7.00 to 7.30

(Q) Data request, read-out pIC50, for CC(C)(OC[C@H](NC(=O)c1nonc1C1CC1)c1nc2cc([C@@H](C3CC3)N3C[C@@H](C(F)(F)F)NC3=O)ccc2[nH]1)C(F)(F)F
(A) > 7.30

(Q) Follow-up entry: Cc1nonc1C(=O)N[C@@H](COC(C)(C)C(F)(F)F)c1nc2cc(CN3C[C@](C)(C(F)(F)F)NC3=O)ccc2[nH]1 (relative stereo)
(A) < 7.00

(Q) Follow-up entry: [2H]C1([2H])NC(=O)N([C@@H](c2ccc3[nH]c([C@H](COC(C)(C)C(F)(F)F)NC(=O)c4nonc4C)nc3c2)C2CC2)CC1(F)F
(A) > 7.30

(Q) Follow-up entry: Cc1nonc1C(=O)NC(COC(C)(C)C(F)(F)F)c1nc2cc([C@@H](COC3CC3)N3CC(F)(F)CNC3=O)ccc2[nH]1 (single isomer, unassigned)
(A) > 7.30

(Q) Follow-up entry: COC[C@H](c1ccc2[nH]c(C(COC(C)(C)C(F)(F)F)NC(=O)c3nonc3C3CC3)nc2c1)N1CC(F)(F)CNC1=O (single isomer, unassigned)
(A) > 7.30

(Q) Follow-up entry: [2H]C1([2H])[C@H](C(F)(F)F)NC(=O)N1[C@@H](c1ccc2[nH]c([C@@H](NC(=O)c3nonc3C)[C@@H](C)O[C@H](C)C(F)(F)F)nc2c1)C1CC1 (relative stereo)
(A) < 7.00

(Q) Follow-up entry: Cc1nonc1C(=O)N[C@@H](COC(C)(C)C(F)(F)F)c1nc2ccc(CN3CC(F)(F)CNC3=O)cc2[nH]1
(A) > 7.30

(Q) Follow-up entry: C[C@H](O[C@H](C)[C@H](NC(=O)c1nonc1C1CC1)c1nc2cc([C@@H](COC3CC3)N3C[C@@H](C(F)(F)F)NC3=O)ccc2[nH]1)C(F)(F)F
(A) > 7.30

(Q) Follow-up entry: COC[C@H](c1ccc2[nH]c([C@@H](NC(=O)c3nonc3C)[C@@H](C)OC3CC3)nc2c1)N1CC(F)(F)CNC1=O
(A) > 7.30
